Molecular target: Hsp90β (Homo sapiens, UniProt P08238)
Sequence (P08238 whole entry): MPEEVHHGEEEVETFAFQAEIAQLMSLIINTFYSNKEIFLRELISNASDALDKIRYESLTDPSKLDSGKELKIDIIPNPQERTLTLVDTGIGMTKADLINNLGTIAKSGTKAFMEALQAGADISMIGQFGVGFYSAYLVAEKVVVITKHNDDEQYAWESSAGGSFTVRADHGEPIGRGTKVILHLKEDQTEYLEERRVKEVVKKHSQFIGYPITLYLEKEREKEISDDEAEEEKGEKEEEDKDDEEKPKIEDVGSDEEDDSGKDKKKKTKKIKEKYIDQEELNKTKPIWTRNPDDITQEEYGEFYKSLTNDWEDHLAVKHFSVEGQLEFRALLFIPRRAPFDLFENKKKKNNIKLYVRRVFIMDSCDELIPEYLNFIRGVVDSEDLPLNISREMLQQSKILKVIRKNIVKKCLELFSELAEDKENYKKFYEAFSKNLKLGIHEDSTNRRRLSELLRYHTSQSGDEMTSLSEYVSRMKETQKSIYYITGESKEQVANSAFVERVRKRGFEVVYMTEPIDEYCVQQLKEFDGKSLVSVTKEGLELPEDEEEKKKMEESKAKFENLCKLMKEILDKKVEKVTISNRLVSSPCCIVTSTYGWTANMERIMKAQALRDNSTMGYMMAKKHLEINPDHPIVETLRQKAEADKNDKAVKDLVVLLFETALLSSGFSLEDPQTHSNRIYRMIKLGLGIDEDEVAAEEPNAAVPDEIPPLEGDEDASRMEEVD
Experiment: Transcreener ADP Hsp90 ATPase assay
Assay type: biochemical
pIC50: −log10 of the molar value.
reported.property: pIC50

CC(C)CNCC(O)COc1ccc(C(C)(C)c2ccc(OCC(O)CNCC(C)C)cc2)cc1 (centres unmarked); ~3.58
CN1CCN(CC(O)COc2ccc(C(C)(C)c3ccc(OCC(O)CN4CCN(C)CC4)cc3)cc2)CC1 (centres unmarked); ~3.66
